Data provenance: patent US20240247080A1

biological target: hNPY2R (Homo sapiens); construct: expressed in transfected cells; host or cells: HEK-293 cells carrying a CRE-luciferase reporter gene; assay: hNPY2R CreLuc reporter gene assay in 0.5% and 100% plasma; type: cell-based; details: CreLuc reporter gene assay, 0.5% human plasma; read-out: hNPY2R 0.5% hP
Sequence (P49146 whole entry): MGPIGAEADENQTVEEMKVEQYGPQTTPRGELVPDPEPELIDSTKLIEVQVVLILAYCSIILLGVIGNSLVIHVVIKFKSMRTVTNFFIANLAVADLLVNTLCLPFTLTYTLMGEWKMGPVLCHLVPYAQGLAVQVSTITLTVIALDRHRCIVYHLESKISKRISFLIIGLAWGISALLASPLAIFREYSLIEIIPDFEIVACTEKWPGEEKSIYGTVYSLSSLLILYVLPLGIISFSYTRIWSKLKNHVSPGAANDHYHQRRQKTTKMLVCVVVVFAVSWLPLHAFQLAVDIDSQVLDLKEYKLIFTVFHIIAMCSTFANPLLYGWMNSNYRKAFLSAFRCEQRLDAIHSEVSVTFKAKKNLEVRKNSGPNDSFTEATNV
pEC50: −log10 of the molar value. Starred links: 1 amine or outer side, 2 acyl side, 3 side chain; linkers in the order of their positions; H or OH if unused. Non-standard residues stand in square brackets, D forms with d. Groups on a side chain read outwards from the residue. No end group written: not given here. *: point of attachment. C20 diacid = O=C(O)CCCCCCCCCCCCCCCCCCC(=O)*; C18 diacid = O=C(O)CCCCCCCCCCCCCCCCC(=O)*; γGlu = O=C(O)[C@H](CCC(=O)[*:2])N[*:1]; εLys = N[C@@H](CCCCN[*:1])C(=O)[*:2]; AEEA = NCCOCCOCC(=O)O; Aib = CC(C)(N)C(=O)O
Listing of entries alongside the reported pEC50.

SUBSTANCE: H-Y[Aib]EGTFTSDYSI[Aib]LEK(Ac)QAQ[Aib]AFVEWLIK([εLys-γGlu-γGlu-γGlu-γGlu-γGlu-γGlu-C20 diacid])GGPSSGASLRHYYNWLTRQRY-NH2 [Compound 192]
pEC50: 7.69
//
SUBSTANCE: H-Y[Aib]EGTFTSDYSI[Aib]LEKQAQ[Aib]AFVEWLIK([εLys-γGlu-γGlu-γGlu-γGlu-γGlu-C18 diacid])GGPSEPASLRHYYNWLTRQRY-NH2 [Compound 263]
pEC50: 7.80
//
SUBSTANCE: H-Y[Aib]EGTFTSDYSI[Aib]LEKQAQ[Aib]AFVEWLIK([εLys-γGlu-γGlu-γGlu-γGlu-γGlu-C18 diacid])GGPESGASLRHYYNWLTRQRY-NH2 [Compound 152]
pEC50: 7.90
//
SUBSTANCE: H-Y[Aib]EGTFTSDYSI[Aib]LEKQAE[Aib]AFVEWLIK([γGlu-γGlu-γGlu-γGlu-C18 diacid])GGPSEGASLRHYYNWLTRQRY-NH2 [Compound 262]
pEC50: 7.88
//
SUBSTANCE: H-Y[Aib]EGTFTSDYSI[Aib]LEEQAQ[Aib]AFVEWLIK([εLys-γGlu-γGlu-γGlu-γGlu-C20 diacid])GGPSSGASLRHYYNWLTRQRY-NH2 [Compound 97]
pEC50: 7.83
//
SUBSTANCE: H-Y[Aib]EGTFTSDYSI[Aib]LEKQAQ[Aib]AFVEWLIK([AEEA-AEEA-Glu-Glu-Glu-C18 diacid])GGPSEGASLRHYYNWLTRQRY-NH2 [Compound 298]
pEC50: 7.92
//
SUBSTANCE: H-Y[Aib]EGTFTSDYSI[Aib]LEKQAQ[Aib]AFVQWLIK([AEEA-AEEA-γGlu-γGlu-γGlu-γGlu-C18 diacid])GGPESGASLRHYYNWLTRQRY-NH2 [Compound 58]
pEC50: 7.99
//
SUBSTANCE: H-Y[Aib]EGTFTSDYSI[Aib]LEKQAQ[Aib]AFVEWLIK([AEEA-AEEA-γGlu-γGlu-γGlu-γGlu-γGlu-C18 diacid])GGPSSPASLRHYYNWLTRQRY-NH2 [Compound 140]
pEC50: 7.91
//
SUBSTANCE: H-Y[Aib]EGTFTSDYSI[Aib]LEKQAQ[Aib]AFVEWLIK([εLys-γGlu-γGlu-γGlu-γGlu-γGlu-γGlu-C20 diacid])GGPSEYVSLRHYYNWLTRQRY-NH2 [Compound 217]
pEC50: 7.73
//
SUBSTANCE: H-Y[Aib]EGTFTSDYSI[Aib]LEKQAQ[Aib]EFVEWLIK([AEEA-AEEA-γGlu-γGlu-γGlu-C20 diacid])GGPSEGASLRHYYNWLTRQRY-NH2 [Compound 273]
pEC50: 7.72
//
SUBSTANCE: H-Y[Aib]EGTFTSDYSI[Aib]LE[Aib]EAQ[Aib]KFVEWLIK([εLys-γGlu-γGlu-γGlu-γGlu-γGlu-γGlu-C20 diacid])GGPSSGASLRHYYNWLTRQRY-NH2 [Compound 16]
pEC50: 7.54
//
SUBSTANCE: H-Y[Aib]EGTFTSDYSI[Aib]LEKQAQ[Aib]AFVEWLIK([AEEA-AEEA-γGlu-γGlu-γGlu-C18 diacid])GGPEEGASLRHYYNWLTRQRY-NH2 [Compound 248]
pEC50: 7.73
//
SUBSTANCE: H-Y[Aib]EGTFTSDYSI[Aib]LEKQAQ[Aib]EFVQWLIK([εLys-γGlu-γGlu-γGlu-γGlu-γGlu-γGlu-γGlu-C20 diacid])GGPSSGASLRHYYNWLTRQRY-NH2 [Compound 43]
pEC50: 7.88
//
SUBSTANCE: H-Y[Aib]EGTFTSDYSI[Aib]LELQAQ[Aib]AFVEWLIK([εLys-γGlu-γGlu-γGlu-γGlu-γGlu-γGlu-C20 diacid])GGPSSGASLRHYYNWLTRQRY-NH2 [Compound 209]
pEC50: 7.45
//
SUBSTANCE: H-Y[Aib]EGTFTSDYSI[Aib]LEKQAQ[Aib]EFVQWLIK([εLys-γGlu-γGlu-γGlu-γGlu-γGlu-γGlu-C18 diacid])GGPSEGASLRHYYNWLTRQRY-NH2 [Compound 153]
pEC50: 7.72
//
SUBSTANCE: H-Y[Aib]EGTFTSDYSI[Aib]LEEQAQ[Aib]AFVEWLIK([εLys-AEEA-γGlu-γGlu-γGlu-γGlu-γGlu-C20 diacid])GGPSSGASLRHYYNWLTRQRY-NH2 [Compound 110]
pEC50: 7.76
//
SUBSTANCE: H-Y[Aib]EGTFTSDYSI[Aib]LEKQAQ[Aib]EFVEWLIK([AEEA-AEEA-γGlu-C18 diacid])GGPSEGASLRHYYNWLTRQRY-NH2 [Compound 282]
pEC50: 7.76
//
SUBSTANCE: H-Y[Aib]EGTFTSDYSI[Aib]LEKQAQ[Aib]AFVEWLIK([εLys-γGlu-γGlu-γGlu-γGlu-γGlu-γGlu-C20 diacid])GGPSSGASLRHYYNL[Aib]TRQRY-NH2 [Compound 79]
pEC50: 7.06
//
SUBSTANCE: H-Y[Aib]EGTFTSDYSI[Aib]LEKQAQ[Aib]EFVQWLIK([γGlu-γGlu-γGlu-γGlu-γGlu-γGlu-C20 diacid])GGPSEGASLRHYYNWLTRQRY-NH2 [Compound 185]
pEC50: 7.88
//
SUBSTANCE: Y[Aib]EGTFTSDYSI[Aib]LEKQAQ[Aib]AFVQWLIK([γGlu-γGlu-γGlu-γGlu-γGlu-γGlu-C20 diacid])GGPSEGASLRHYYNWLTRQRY-NH2 [Compound 223]
pEC50: 7.88
